Measured pKd values are reported for all entries that follow.
molecular target: SNX27, Q96L92; test: holdup assay; parameters: key: below the threshold = too weak to quantify, mostly under pKd 3.1 to 4; settings: plain residues with an end cap or a label only (N-terminal biotin on a linker: ahx)
Please give the numeric answer without any surrounding text.

Would you please look over these solved cases?
binder	measurement_label	val
TVICWPGSLV [LNX2, Q8N448]	pKd	3.95
LSDPSVSTVV [GRIN1, Q05586]	pKd	3.61

// next entry
If you can, please state the reported pKd value of HNAFLSVTTV [PDZRN4, Q6ZMN7] .
3.65

Source of measurements: paper PMC9482650
